assay: yeast display, Sf9 membrane polyspecificity reagent, FACS + sequencing; frameworks hold sequencing errors
measuredEndpoint: polyreactivity (PSR sort gate)

Worked examples, 4 sequences total:
QGQRVESGGGLVQAGGSLRLSCAASGFIFAHNAMGWYRPAPGTETEFVAAISANTGNTYYADSVKGRFTISRDNAKNTVYLQMNSLKPEDTAVYYCRSFYYWGQGTQVTVSS = high polyreactivity
QVQLVESGGGLVQAGGSLRLSCAASGRIFTKYAMGWYRQAPGKERELVASISSGGSTYYADSVKGRFTISRDNAKNTVYLQMNSLKPEDTAVYYCARSTGTSRRMDDWGQGTQVTVSS = high polyreactivity
QVQLVESGGGLVQAGGSLRLSCSASGSTFHPYAMGWYRQAPGKERELVAAINSGDNTYYADSVKGRFTITRDNAKNTVYLQMNSLKPEDTAVYYCAVRYWDESHTEYDYWGQGTQVTVSS = low polyreactivity
QVQLVESGGGLVQAGGSLRLSCAASGITFAIYDMGWYRQAPGKERELVAVISGRGGSTYYADSVKGRFTISRDNAKNTVYLQMNSLKPEDTAVYYCAARGEASIFAGYDYWGQGTQVTVSS = low polyreactivity

Incoming: Would you kindly share the measured polyreactivity (PSR sort gate) for QVQLVESGGGLVQAGGSLRLSCAASGFTLKSYAMGWYRQAPGKERELVASISRRGGSTYYADSVKGRFTISRDNAKNTVYLQMNSLKPEDTAVYYCNADYVRFPGNAYDYWGQGTQVTVSS ?
Outgoing: high polyreactivity

* * *

test: yeast display, Sf9 membrane polyspecificity reagent, FACS + sequencing; frameworks hold sequencing errors
measuredEndpoint: polyreactivity (PSR sort gate)

Worked examples, 8 sequences total:
QVQLVESGGGLVQAGGSLRLSCAASGRTIPWNVMGWYRQAPGKERELVATITSRRTSTNYADSVKGRFTISRDNAKNTVYLQMNSLKPEDTAVYYCARRTVWGAGHYYYWGQGTQVTVSS = high polyreactivity
QVQLVESGGGLVQAGGSLRLSCAASGSISDTYGMGWYRQAPGKERELVASITWSSGSTDYADSVKGRFTISRDNAKNTVYLQMNSLKPAETAVYYCATYEPFYSFIFRGIYDYWGQGTQVTVSS = low polyreactivity
QVQLVDSGGGLVQAGGSLRLSCAASGRIFWHNAMGWYRQAPGKERELVAAITGGGSTYYADSVKGRFTMSRVNAKNTVYLQKNSLIPEDTAVYYCATLGSLRYYWPGYDYWGQGTQVTVSS = low polyreactivity
QVQLVESGGGLVQEGGSLRLSCAASGRTFWAYAMGWYRQAPGKERELVAAITTSGGSTNYADSVKGRFTISRDNAKNTVYLQMNSLKPEDTADYYCNADPTYHVVNGVAYWGQGTQVTVSS = low polyreactivity
QVQLVESGGGLVQEGGSLRFSCAASGSTFHSYAMGWYRQAPGKERELVAAISTSGGTTYYADSVKGRFTISRDNAKNTVYLQMNSLKPEDTAVYYCAARRVTSPFGTDSWGQGTQVTVSS = low polyreactivity
QVQLVESGGGLVQAGGRLRLSCAASGRTFFGYAMGWYRQAPGKERELVAAITSSGGRTYYADSVKGRFTISRDNAKNTVYLQMNSLKPEDTAVYYCNTVLSFRSVNIYRGRGDYWGQGTQVTVSS = high polyreactivity
QVQLQESVGGLVQACGSQRLICAASGYIFSHQYMGCYRQAPGKERELVASMSPGATTNYADRVKGRFTISRDNAKNTVYLQMNSLKTEDTAVYYYAVYQILDRRLSYWGQGTQVTVSC = high polyreactivity
QVQLQESGGGLVQAGGSLRCAASGNISTRSEMGWYRQAPGKEREFVATINSGGITNYADSVKGRFTISRDNAKNTVYLRMNCLKPEDTAVYYRAVYGYFSDPYDYWGQGTQVTVSS = low polyreactivity

Report polyreactivity (PSR sort gate) for every entry below.
1. QEQLQESAGGLVQACGSQRLSCAASGSISEGQDMGSYRRAPGKEREFVAGIAPGATTYYADSVKGRFTISRDNAKKTVYRQMNSLKAEDTAVYYCAARSVTETDHDYWGQGTQVTVSS
2. QVQLVESGGGLVQAGGSLRLSCAASGRIINYNVMGWYRQAPRKEMELVAAITRGGSTYYADSVKVRFTISRDNAKNTVYLQMNILKPEDTEVYYCSADTARRPRSYYYWGQGTQVTVSS
3. QVQLVESGGRLVQAGGSLRLSCAASGLTFSSYAMGWYRQAPGKERQLVAAISRGGGSTYYADSVKGRFTISRDNAKNTGYLQMNSLKPEDTAVYYCAADSGFWWLYDYWGQGTHVTVSS
4. QVQLVESGGGLVQAGGSLRLSCASSGNTFVDYAMGWFRQAPGKETELVAAISDGGSTNYADSVKGRFTISRDNAKNTVDLQMNSLKPEDTEVYYCAKDELYIPGVWPYYEYDYWGQGTQVTVSS
5. QVQLVESGGGLVQAGGSLRLSCAASGRTFGLYAMGWYRQAPGKERELVAAIDQSTGSTYYADSVKGRFTISRDNAKNTVYLQMNSLKPEDTAVYYCAAEEASTVRYYWYDYWGQVTQVTVSS

Outgoing:
1: low polyreactivity; 2: low polyreactivity; 3: high polyreactivity; 4: low polyreactivity; 5: high polyreactivity

Report polyreactivity (PSR sort gate) for every entry below.
1. QVQLVESGGGLVQAGGSLRLSCAASGIILYPYAMGWYRQAPGKERELVAAISWSGGSTYYADSVKGRFTISRDKAKNTVYLQMNSLKPEDTAVYYCNARYYGPSWNSYDYWGQGTQVTVSS
2. QVQLVESGGGLVQAGGSLRLSCAASGNIFSWYAMGWYRQAPGKERELVAAITSGGRTYYADSVKGRFTISRDNAKNTVYLQMNSLKPEDTAVYYCNALRRRQYHDDYWGQGTQVTVSS
3. QVQLVDSGGGLVQAGGSLRLSCAASGGTFQGNAMGWYRQAPGKEREFVATITRGGGSKYYADSVKGRFTISRDNAKNTVYLQMNSLKPEDTAVYFCNAYLVSRYPGDYWGQGTQVTVSP
4. QVQLGESGGGLVQAGGSLLLSCAASGSIFRHYTMGWDSQAPGKERELVAVISSGGNTNYADSVKGRFTISRDNAKNTVYFQMNSLKPEDTAVYYCAARSHRYYSRVNYWGQGTQVTVSS
5. QVQLVESGGGLVQAGGSLRLSCAASGLTFGNYAMGWDRQAPGKERELVAAISWGGGITYYADSVKGRFTISRDIAKNTVYLQMNSLKPEDTAVYYCAADVYFNSTPDYLYDYWGQGTQVTVSS
6. QVQLVESGGCLVQAGGSLRLSCAPSGSIFKVYAKGWYRQAPGKVRELVAAITNGGSTYADSVKGRFTMSRDNAKYTVYLQMNSLKPEDTAVYYCDSDYRGHSGSWYDYWGQGTQVTVSS
7. QVQLVESGGGLVQAGGSLRLSCAASGRILRDYDMGWYRQATGKERELVAAINWSDGSTYYADSVKGRFTISRDNAKNTVYLQMNSLKPEDTAVYYCAASRWRPLERGTTWLNDYWGQGTQVTVSS
8. QVQLVESGGGLVQAGGSLRLSCAASGRILRTNAMGWYRQAPGKERELVAAISSDGSTYYADSVKGRFTISRDNAKNTVYLQMNSLKPEDTAVYYCAARLFYRGPRFDYWGQGTQVTVSS

Outgoing:
["high polyreactivity", "high polyreactivity", "high polyreactivity", "high polyreactivity", "low polyreactivity", "low polyreactivity", "low polyreactivity", "low polyreactivity"]

* * *

test: yeast display, Sf9 membrane polyspecificity reagent, FACS + sequencing; frameworks hold sequencing errors
measuredEndpoint: polyreactivity (PSR sort gate)

Worked examples, 5 sequences total:
QLQLHESGGVQAGGSLRLSCAAGGYISRSDVMGWYRQAPGKERELVATINNGTITYYADSVKGRFNISRDNAKNTVYLQMNSLKREDTAVHYWAVVQSDCDSLYYWGQGTQVTVSS = low polyreactivity
QVQLVESGGGLVQSGGSLRLSCAASGIIFNDYAMGWYRQAPGKERELVAAISGRGGRTYYADSVKGRFTISRDNAKITVYLQMNSLKPEDTAVYYCAARVLPTDYYWGQGTQVTVSS = high polyreactivity
QVQLVESGGGLVQAGGSLRLSCAASGRIFGYYAMGWYRQAPGKERELVAAISSRGSRTYYADSVKGRFTISRDNAKNTVYLQMNSLKPVDTAVYYCATYDYWGQGTQVTVSS = high polyreactivity
QVQLVESGGGLVQAGGSLRLSCAASGFIFYSNAMGWYRQAPGKERELVAAISRGGGSTYYADSVKGRFTISRDNAKNTVYLQMNSLKPEDTAVYYCAAELYRWYYYWGQGTQVTVSS = high polyreactivity
QVQLVESGGGLVQAGGSLRLSCAASGRIFGYNVMGWYIQAPGKERELVAAISWGTGSTYADSMKGRFTISRDNAKKTVYLQMNSLIPVDTAVYYCAADSFIPPYDHWGQGTQVTVSS = low polyreactivity

Report polyreactivity (PSR sort gate) for every entry below.
1. QVQLVESGGGLVQEGGSLRLSCAASGINFNVNALGWYKQAPGKERELVARITTSGGSTSYADSVKGRFTISRDNAKNTVYLQMNSLKPDDTAVYYCAADRARYYSEYDYWGQGTQVNVSS
2. QVQLVESGGGLVQAGGSLRLSCAASGITFFAYAMGWYRQAPGKERELVAAIWRGDNTYYADSVKGRFTISRDNAKNTVYLQMNSLKPEDTAVYYCAARYWSRRIFREGYWGQGTQVTVSS
3. QVQLVESGGGLVQAGGSLRLSCAASGIIFAYNAMGWYRQAPGKERELVATITDSGGSTSYADSVKGRFTISRDNAKNTVYLQMNSLKPEDTAVYYCAVLPVYWYWRNYVYLSGYDYWGQVTQVTVSS
4. QVQLVESGAGLVQAGGSLRLSCATYGITISYYAMVWYGQGPGKVSELVAAISTSGGSTYYADSVKGRFTFSRDNAKNTVYLQMNSLKPEDTAVFYCAAVYTTGGYTGLEYWGQGTQVTVSS

Outgoing:
1: low polyreactivity; 2: high polyreactivity; 3: low polyreactivity; 4: high polyreactivity

Report polyreactivity (PSR sort gate) for every entry below.
1. QVQLVDSGGGLVQAGGSLRLSCAASGSIFFENDMGCYRQAPGKEREFVAAISLSSTSTYYADSVKGRFTISRDNAKNTVYLQMNSLKPEDTAVYYCAADAIFGWPTFDFWGQGTQVTVSS
2. QVQLVESGGGLVQAGGSLRLSCAASGRIFAFNAMGWYRQAPGTESELVAAINWSGTTTYYADSVKGRFTISRDNAKNTVYLQMNSLKPEDTAVYYCAADVTFRGYAKYYYWGQGTQVTVSS

Outgoing:
["low polyreactivity", "low polyreactivity"]
